Please go through the items and note down their TGI.
# Tested on: SK-OV-3 ovarian
# Test summary: NCI tumour cell line growth inhibition, 48 h

**Query** Query: TGI; subject: C=C1C(=O)O[C@H]2[C@H]1CC/C(Cn1cc(-c3cc(C)c(C)cc3C)nn1)=C\CC[C@@]1(C)O[C@@H]21
**Result** 23.9 µM

**Query** Query: TGI; subject: O=c1cc(N=Nc2ccc(Cl)cc2)[nH]c(=O)[nH]1
**Result** 22 µM

**Query** Query: TGI; subject: CSCCC(NC(=O)OCc1ccccc1)NC(=O)OCc1ccccc1
**Result** > 100 µM

**Query** Query: TGI; subject: O=[N+]([O-])c1ccc(Cl)cc1N/N=C/c1cccc2cccnc12
**Result** > 100 µM

**Query** Query: TGI; subject: CC[C@@]12C=CC(=S)N(CCSc3ccccc3)[C@@H]1c1c(n(S(=O)(=O)c3ccc(OC)cc3)c3ccccc13)CC2
**Result** > 100 µM

**Query** Query: TGI; subject: C=C1C(=O)O[C@H]2[C@H]1CC/C(COC(=O)c1ccccc1)=C\CC[C@@]1(C)O[C@@H]21
**Result** 24 µM

**Query** Query: TGI; subject: CCOC(=O)/C(=C\c1ccc[nH]1)C(=O)c1ccccc1
**Result** > 100 µM

**Query** Query: TGI; subject: O=C(OCc1ccccc1)N1CCN(C(=O)OCc2ccccc2)CCN(C(=O)OCc2ccccc2)CCN(C(=O)OCc2ccccc2)CCN(C(=O)OCc2ccccc2)CC1
**Result** > 100 µM

**Query** Query: TGI; subject: CC(=O)/C=C(\O)c1[nH]c(C(=O)O)cc1C1CCN(Cc2ccccc2)C1=O (centres undefined)
**Result** 57.7 µM

**Query** Query: TGI; subject: COc1ccc(-c2c(N)[n+]([O-])c3ccccc3[n+]2[O-])cc1OC
**Result** > 100 µM

**Query** Query: TGI; subject: CCSc1nnc(-c2ccc3ccccc3c2O)n1-c1ccc(Cl)cc1
**Result** > 100 µM

**Query** Query: TGI; subject: c1ccc(-c2cc(-c3cccs3)c(-c3cccs3)o2)cc1
**Result** > 100 µM

**Query** Query: TGI; subject: C=CCN(c1cc(OC)c2[nH]cc(C)c2c1[N+](=O)[O-])S(C)(=O)=O
**Result** > 100 µM

**Query** Query: TGI; subject: CC(=O)O[C@H]1[C@@H](OC(C)=O)C(C)(C)/C=C/[C@H](C)C(=O)[C@@]2(OC(C)=O)C[C@@](C)(OC(C)=O)[C@H](OC(C)=O)[C@@H]2[C@H]2OC(=O)CC[C@@]2(OC(=O)c2ccccc2)[C@@H]1OCC(C)C
**Result** > 100 µM

**Query** Query: TGI; subject: CC(=O)N1c2ccccc2C(C)C1c1[nH]c2ccccc2c1C (centres undefined)
**Result** 43.9 µM

**Query** Query: TGI; subject: CC(C)(C)[C@H]1CCC2(OCCO2)[C@](O)(CCCO)C1
**Result** > 100 µM

**Query** Query: TGI; subject: CCc1nc2ccc(C(F)(F)F)cc2[nH]c1=O
**Result** > 100 µM

**Query** Query: TGI; subject: C=C1C(=O)OC2CC(C)C3C=CC(=O)C3CC12 (centres undefined)
**Result** 33.3 µM

**Query** Query: TGI; subject: CC1(C)CCC(=O)NC1CC(=O)CC1NC(=O)CCC1(C)C (centres undefined)
**Result** > 100 µM

**Query** Query: TGI; subject: COc1ccc2c(c1)C1(C(=O)N2)C(C#N)=C(c2ccccc2)Nc2c1c(-c1ccccc1)nn2-c1ccccc1 (centres undefined)
**Result** 5.14 µM

**Query** Query: TGI; subject: OCC(O)C(O)C(O)/C=N/Nc1nc2ccccc2nc1-c1ccccc1 (centres undefined)
**Result** > 100 µM

**Query** Query: TGI; subject: O=C(OCCC12CC3CC(CC(C3)C1)C2)c1ccc(NCc2cc(O)ccc2O)cc1
**Result** 13.1 µM

**Query** Query: TGI; subject: Cn1c(=O)c(Oc2ccccc2)cc2cnc(NC3CCOCC3)nc21
**Result** > 25 µM

**Query** Query: TGI; subject: Oc1ccc(O)c(CNc2ccccc2)c1
**Result** 38.9 µM

**Query** Query: TGI; subject: Fc1ccc2[nH]cc(SSc3c[nH]c4ccc(F)cc34)c2c1
**Result** 22.8 µM

**Query** Query: TGI; subject: CC(=O)Oc1ccc(/C=C/C(=O)O[C@H]2CCCC[C@@H]2OC(=O)/C=C/c2ccc(OC(C)=O)c(OC(C)=O)c2)cc1OC(C)=O
**Result** 27.4 µM

**Query** Query: TGI; subject: N#CC1C2CCC3(CC2CCN1C(=O)c1ccccc1)OCCO3 (centres undefined)
**Result** > 100 µM

**Query** Query: TGI; subject: NC1(C(=O)O)CCCC1
**Result** > 625 µM

**Query** Query: TGI; subject: CC(C)CN(CC(C)C)C(=O)C1CCCC[C@@H]1C(=O)O (some centres undefined)
**Result** > 100 µM

**Query** Query: TGI; subject: C#CC(O)/C=C/C(O)CCCC(O)CC#CC(O)C#CC(O)CCCC(O)/C=C/CCCC(=O)CCCCCCCCCCCCCCCC(O)C(O)C#CC(=O)O (centres undefined)
**Result** > 50 µM

**Query** Query: TGI; subject: O=C1CCS/C(=N\S(=O)(=O)c2ccc(N3N=C4c5ccccc5CC4C3c3cccs3)cc2)N1C(=O)c1ccccc1 (centres undefined)
**Result** > 100 µM

**Query** Query: TGI; subject: Cn1cnc([N+](=O)[O-])c1Sc1nnnn1-c1ccccc1
**Result** > 100 µM

**Query** Query: TGI; subject: CC(NC(C#N)CC12CC3CC(CC(C3)C1)C2)c1ccccc1 (centres undefined)
**Result** > 100 µM

**Query** Query: TGI; subject: CC(=O)NC(Cc1ccc(OP(=O)(OCc2ccc([N+](=O)[O-])o2)N(C)CCCCCl)cc1)C(=O)NC(C)c1ccc(OCC2CCCCC2)c(C(N)=O)c1 (centres undefined)
**Result** 37.3 µM

**Query** Query: TGI; subject: COc1ccc(N(C)c2c3ccccc3nc3[nH]c4ccccc4c23)cc1
**Result** 4.52 µM

**Query** Query: TGI; subject: Clc1c(C(Cl)(Cl)Cl)nsc1N1CCCCC1
**Result** 78.9 µM

**Query** Query: TGI; subject: Clc1nc(Cl)c(CBr)c(Cl)n1
**Result** 29 µM

**Query** Query: TGI; subject: O=[N+]([O-])c1ccc2c(c1)c(S(=O)(=O)O)cc1nonc12
**Result** > 100 µM

**Query** Query: TGI; subject: NC1CC(=O)c2sccc21 (centres undefined)
**Result** > 100 µM
